target: HPK1 (Homo sapiens, UniProt Q92918); test: HPK1 Biochemical Assay (ADP-Glo luminescence; low ATP 10 μM or high ATP 200 μM); conditions: HPK1 ADP-Glo assay, high ATP (200 μM ATP, 5 nM HPK1); read-out: Biochemical Potency (high ATP)
Sequence (Q92918 whole entry, species assumed): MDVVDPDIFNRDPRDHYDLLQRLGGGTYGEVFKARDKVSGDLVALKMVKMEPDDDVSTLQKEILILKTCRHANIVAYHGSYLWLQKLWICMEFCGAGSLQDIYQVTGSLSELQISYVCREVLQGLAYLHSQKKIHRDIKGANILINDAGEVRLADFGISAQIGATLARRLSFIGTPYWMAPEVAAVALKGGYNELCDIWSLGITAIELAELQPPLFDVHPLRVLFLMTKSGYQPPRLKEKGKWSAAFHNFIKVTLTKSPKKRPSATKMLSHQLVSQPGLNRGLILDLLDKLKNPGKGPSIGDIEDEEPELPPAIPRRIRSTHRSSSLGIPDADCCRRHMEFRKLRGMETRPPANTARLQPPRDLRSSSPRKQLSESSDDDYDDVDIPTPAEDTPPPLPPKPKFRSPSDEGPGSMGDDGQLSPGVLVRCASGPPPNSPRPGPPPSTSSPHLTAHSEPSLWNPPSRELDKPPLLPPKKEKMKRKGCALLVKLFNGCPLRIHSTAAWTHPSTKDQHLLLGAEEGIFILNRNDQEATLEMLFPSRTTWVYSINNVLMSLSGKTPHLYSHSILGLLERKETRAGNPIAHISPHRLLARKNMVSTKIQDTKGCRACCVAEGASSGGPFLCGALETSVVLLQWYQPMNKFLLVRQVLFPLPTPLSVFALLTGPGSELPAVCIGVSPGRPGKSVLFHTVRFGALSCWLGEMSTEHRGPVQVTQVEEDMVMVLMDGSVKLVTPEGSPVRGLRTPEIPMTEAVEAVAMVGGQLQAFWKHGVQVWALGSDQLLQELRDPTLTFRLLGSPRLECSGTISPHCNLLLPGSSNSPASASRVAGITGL
pIC50: −log10 of the molar value.
What pIC50 was measured for each of the following?

{"columns": ["Molecule", "Target or test system", "pIC50"],
 "data": [
  ["Cc1cc(Nc2cc3nc(-c4cnn(C(C)(C)C#N)c4)sc3cn2)nc(N2C[C@@H]3C[C@H]2CN3CCO)n1", "HPK1 (Homo sapiens, UniProt Q92918)", "> 7.00"],
  ["Cc1cc(Nc2cc3nc(-c4nncn4C)sc3cn2)nc(N2C[C@@H]3C[C@H]2CN3CCO)n1", "HPK1 (Homo sapiens, UniProt Q92918)", "> 7.00"],
  ["Cc1cc(Nc2cc3nc(-c4ccnc(N5CCOC[C@H]5C)c4)sc3cn2)nc(N2C[C@@H]3C[C@H]2CN3CCO)n1", "HPK1 (Homo sapiens, UniProt Q92918)", "> 7.00"]
]}

Hey, quick one: what's pIC50 for each of these?
1. Cc1cc(Nc2cc3nc(-c4ncco4)sc3cn2)nc(N2C[C@@H]3C[C@H]2CN3C)n1
2. Cc1cc(Nc2cc3nc(-c4cccc(C(=O)N5CCC[C@@H]5C)c4)sc3cn2)nc(N2C[C@@H]3C[C@H]2CN3CCO)n1

Result:
> 7.00
> 7.00

###

target: HPK1 (Homo sapiens); assay: HPK1 Biochemical Assay (ADP-Glo luminescence; low ATP 10 μM or high ATP 200 μM); conditions: HPK1 ADP-Glo assay, high ATP (200 μM ATP, 5 nM HPK1); read-out: Biochemical Potency (high ATP)
Reported property: IC50

Provide IC50 values for the following items, in order.
1. Cc1cc(Nc2cc3nc(-c4cnn(C)c4C#N)sc3cn2)nc(N2C[C@@H]3C[C@H]2CN3C)n1
2. Cc1cc(Nc2cc3nc(-c4cccc(CC(=O)N(C)C)c4)sc3cn2)nc(N2C[C@@H]3C[C@H]2CN3C)n1
3. Cc1cc(Nc2cc3nc(-c4cccc(C(=O)N5CCCCC5)c4)sc3cn2)nc(N2C[C@@H]3C[C@H]2CN3CCO)n1
4. CCN1C[C@@H]2C[C@H]1CN2c1nc(C)cc(Nc2cc3nc(-c4cccc(C(=O)NC5CCOC5)c4)sc3cn2)n1 (stereo partly drawn)
5. CCn1cc(-c2nc3cc(Nc4cc(C)nc(N5C[C@@H]6C[C@H]5CN6CCO)n4)ncc3s2)cn1

Result:
1. < 0.1 µM
2. 0.1 to 1 µM
3. < 0.1 µM
4. < 0.1 µM
5. < 0.1 µM

Summary for this molecule, CCN1C[C@@H]2C[C@H]1CN2c1nc(C)cc(Nc2cc3nc(-c4cncc(N5CCOC[C@H]5C)c4)sc3cn2)n1 : IC50 is < 0.1 µM

###

target: HPK1 (Homo sapiens, UniProt Q92918); assay: HPK1 Biochemical Assay (ADP-Glo luminescence; low ATP 10 μM or high ATP 200 μM); conditions: 2 nM HPK1, 10 μM ATP; read-out: Biochemical Potency (low ATP)
Reported property: IC50

{"columns": ["Molecule", "IC50"],
 "data": [
  ["Cc1cc(Nc2cc3nc(-c4nccn4C)sc3cn2)nc(O[C@H]2CCNC2)c1", "< 0.1 µM"],
  ["Cc1ccc(Nc2cc3nc(-n4nccc4C)sc3cn2)nc1CN[C@@H]1CCOC1", "< 0.1 µM"]
]}

Provide reported IC50 for each item, in the same order as listed.
1. CN(C)C(=O)c1cc(-c2nc3cc(Nc4ccnc(N5C[C@@H]6C[C@H]5CN6C)n4)ncc3s2)ccn1
2. Cc1cc(C)n(-c2nc3cc(Nc4ccc(N5CCOCC5)c(CN5CCCC5)n4)ncc3s2)n1
3. NC1(c2nc(Nc3cc4nc(-c5c(F)cccc5F)sc4cn3)ccc2N2CCC(F)(F)C2)CC1
4. Cc1ccc(Nc2cc3nc(-c4ncccc4C)sc3cn2)nc1CN1CCCC1(C)C
5. Cc1cc(Nc2cc3nc(-c4ccnn4C)sc3cn2)nc(O[C@H]2CCNC2)c1
6. Cc1cccnc1-c1nc2cc(Nc3ccc([C@H]4CCOC4)c(CN4CCCC4)n3)ncc2s1 (single isomer, unassigned)
7. Cc1cccnc1-c1nc2cc(Nc3cncc(N4C[C@@H](N)C[C@H]4CO)n3)ncc2s1

Result:
< 0.1 µM
< 0.1 µM
< 0.1 µM
< 0.1 µM
< 0.1 µM
< 0.1 µM
< 0.1 µM

Give one value of IC50 per listed molecule.
1. Cc1cccnc1-c1nc2cc(Nc3nccc(N4C[C@@H](N)C[C@H]4CO)n3)ncc2s1
2. CN1C[C@@H]2C[C@H]1CN2c1nccc(Nc2cc3nc(-c4ccnc(N5CC[C@H](F)C5)c4)sc3cn2)n1
3. Cc1cc(Nc2cc3nc(-c4ccncc4C)sc3cn2)nc(O[C@H]2CCNC2)c1
4. CN1C[C@@H]2C[C@H]1CN2c1cccc(Nc2cc3nc(-c4nccn4C)sc3cn2)n1
5. Cc1ccc(-c2nc3cc(Nc4cccc(N5C[C@@H]6C[C@H]5CN6C)n4)ncc3s2)c(C)n1

Result:
["0.1 to 1 µM", "< 0.1 µM", "< 0.1 µM", "< 0.1 µM", "< 0.1 µM"]

# batch size: 4; output IC50 per entry
1. CC(C)(N)c1nc(Nc2cc3nc(-c4c(F)cccc4F)sc3cn2)ccc1N1CCOCC1
2. CN(C)Cc1ccc(N2CCOCC2)c(Nc2cc3nc(-c4c(F)cccc4F)sc3cn2)n1
3. Cc1cccc(F)c1-c1nc2cc(Nc3ccc(N4CCOCC4)c(CN4CCCC4)n3)ncc2s1
4. Cc1cccnc1-c1nc2cc(Nc3cccc(N4CCN(C)C[C@H]4C)n3)ncc2s1

Result:
< 0.1 µM
> 5 µM
< 0.1 µM
0.1 to 1 µM

Would you mind giving IC50 for every molecule in the list below?
1. c1cncc(-c2nc3cc(Nc4ccc([C@@H]5CCOC5)c(CN5CCCC5)n4)ncc3s2)c1 (single isomer, unassigned)
2. CN1C[C@@H]2C[C@H]1CN2c1nccc(Nc2cc3nc(-c4ncco4)sc3cn2)n1
3. Cc1cc(Nc2cc3nc(-c4ccnc(C)c4)sc3cn2)nc(N2CCC(C)(N)C2)c1 (stereo not shown)
4. Cc1cc(Nc2cc3nc(N4CCC(O)CC4)sc3cn2)nc(O[C@H]2CCNC2)c1

Result:
< 0.1 µM
< 0.1 µM
< 0.1 µM
< 0.1 µM

Please give IC50, item by item, for the list that follows.
1. Cc1ccncc1-c1nc2cc(Nc3ccc(C)c(O[C@H]4CCNC4)n3)ncc2s1
2. Cc1ccc(Nc2cc3nc(-c4ncccc4C)sc3cn2)nc1CN1CC[C@H](F)C1
3. CN1C[C@@H]2C[C@H]1CN2c1nccc(Nc2cc3nc(-c4cccc(S(=O)(=O)N(C)C)c4)sc3cn2)n1

Result:
["< 0.1 µM", "< 0.1 µM", "< 0.1 µM"]

Below are 3 molecules. Give each one its IC50.
1. C[C@@H]1CCCN1c1nc2cc(Nc3ccc(C4CCOCC4)c(CN4CCCC4)n3)ncc2s1
2. Cc1cc(Nc2cc3nc(-c4ncccc4C)sc3cn2)nc(O[C@H]2CCCNC2)c1
3. c1cc(C2CCOCC2)c(CN2CCCC2)nc1Nc1cc2nc(N3C4COCC3C4)sc2cn1

Result:
1. 0.1 to 1 µM
2. < 0.1 µM
3. < 0.1 µM

Answer for every listed entry: what is its IC50? The entries follow.
1. Cc1ccc(Nc2cc3nc(-c4cnn(C(F)(F)F)c4)sc3cn2)nc1CN1CCCC1
2. CN1C[C@@H]2C[C@H]1CN2c1cccc(Nc2cc3nc(-c4cncc(S(C)(=O)=O)c4)sc3cn2)n1

Result:
0.1 to 1 µM
< 0.1 µM

So for Cc1cc(-c2nc3cc(Nc4ccc(N5CCOCC5)c(CN5CCCC5)c4)ncc3s2)ccn1 , the logged IC50 turned out to be 0.1 to 1 µM
